- System: CDK2 (Homo sapiens)
- Construct: endogenous in cells; host or cells: MDA-MB-231
- Assay: CDK protein degradation activity (Western blotting), CDK2
- Type: cell-based
- Condition summary: MDA-MB-231 cells, 0.1 μM, 16 hours, Western blot
Just a reminder that ties go to 0.0: only Enzyme degradation CDK2 (% remaining) @ 0.1 μM strictly below 30% counts as 1.0.

1) Cc1cccc(C(=O)NC2CC(n3cnc4c(NCCC5CCN(CC6CCN(c7ccc8nnn([C@H]9CCC(=O)NC9=O)c(=O)c8c7)CC6)CC5)ncnc43)C2)n1 (stereo partly shown)    1.0
2) Cc1cccc(C(=O)N[C@H]2C[C@@H](n3cnc4c(NC5CCN(CCC6CCN(C(=O)CNc7ccc8c(c7)C(=O)N([C@H]7CCC(=O)NC7=O)C8=O)CC6)CC5)ncnc43)C2)n1 (racemic)    0.0
3) O=C1CC[C@H](N2C(=O)c3ccc(N4CCC(C(=O)N5CCC(CCCN6CCN(c7ccc(Nc8ncnc9c8ncn9C8CC(NC(=O)Cc9ccccc9)C8)cc7)CC6)CC5)CC4)cc3C2=O)C(=O)N1 (stereo partly shown)    0.0
4) Cc1cccc(C(=O)NC2CC(n3cnc4c(NCc5ccc(OCC6CCN(C(=O)COc7cccc8c7C(=O)N([C@H]7CCC(=O)NC7=O)C8=O)CC6)cc5)ncnc43)C2)n1 (stereo partly shown)    0.0
5) Cc1cccc(C(=O)NC2CC(n3cnc4c(NCCC5CCN(CC6CCN(C(=O)C7CN(c8ccc9c(c8)C(=O)N([C@H]8CCC(=O)NC8=O)C9=O)C7)CC6)CC5)ncnc43)C2)n1 (stereo partly shown)    0.0

###

- System: CDK9 (Homo sapiens, UniProt P50750)
- Construct: endogenous in cells; host or cells: MDA-MB-231
- Sequence (P50750 whole entry): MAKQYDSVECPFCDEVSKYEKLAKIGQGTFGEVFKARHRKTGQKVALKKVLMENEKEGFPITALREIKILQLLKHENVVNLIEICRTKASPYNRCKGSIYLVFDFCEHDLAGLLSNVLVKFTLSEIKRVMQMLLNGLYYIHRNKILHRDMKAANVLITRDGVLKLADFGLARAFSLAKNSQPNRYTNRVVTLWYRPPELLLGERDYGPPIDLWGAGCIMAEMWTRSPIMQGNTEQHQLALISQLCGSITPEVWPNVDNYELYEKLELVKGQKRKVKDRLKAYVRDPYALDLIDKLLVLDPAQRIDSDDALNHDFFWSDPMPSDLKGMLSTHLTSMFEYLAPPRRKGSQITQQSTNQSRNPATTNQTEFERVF
- Assay: CDK protein degradation activity (Western blotting), CDK9
- Format: cell-based
- Condition summary: MDA-MB-231 cells, 1 μM, 16 hours, Western blot
Readout kind: Enzyme degradation CDK9 (% remaining) @ 1 μM (%)

1. O=C(CNc1ccc2c(c1)C(=O)N(C1CCC(=O)NC1=O)C2=O)NC[C@H]1CC[C@H](CN2CCN(c3ccc(Nc4ncnc5c4ncn5[C@H]4C[C@@H](NC(=O)Cc5ccccc5)C4)cc3)CC2)CC1 (some centres unmarked)    0
2. O=C1CC[C@H](N2C(=O)c3ccc(NCC(=O)N4CCC(CN5CCC(c6ccc(Nc7ncnc8c7ncn8C7CC(NC(=O)Cc8ccccc8)C7)cc6)CC5)CC4)cc3C2=O)C(=O)N1 (some centres unmarked)    0
3. Cc1cccc(C(=O)N[C@H]2C[C@@H](n3cnc4c(NCc5cccc(OCCCN6CCN(C(=O)CNc7ccc8c(c7)C(=O)N([C@H]7CCC(=O)NC7=O)C8=O)CC6)c5)ncnc43)C2)n1    20
4. COc1ccc(C(=O)NC[C@H]2CC[C@H](CN3CCN(c4ccc(Nc5ncnc6c5ncn6[C@H]5C[C@@H](NC(=O)Cc6ccccc6)C5)cc4)CC3)CC2)cc1N1CCC(=O)NC1=O    30

###

- System: CDK9 (Homo sapiens, UniProt P50750)
- Construct: endogenous in cells; host or cells: MDA-MB-231
- Assay: CDK protein degradation activity (Western blotting), CDK9
- Type: cell-based
- Condition summary: MDA-MB-231 cells, 0.1 μM, 16 hours, Western blot
This listing pairs compounds with measured Enzyme degradation CDK9 (% remaining) @ 0.1 μM.
Readout kind: Enzyme degradation CDK9 (% remaining) @ 0.1 μM

1. O=C1CC[C@H](N2C(=O)c3cccc(N4CCN(CCCN5CCN(c6ccc(Nc7ncnc8c7ncn8C7CC(NC(=O)Cc8ccccc8)C7)cc6)CC5)CC4)c3C2=O)C(=O)N1 (stereo partly drawn)    70%
2. Cc1cccc(C(=O)N[C@H]2C[C@@H](n3cnc4c(NCc5cccc(N6CCN(CC7CCN(c8ccc9c(c8)C(=O)N([C@H]8CCC(=O)NC8=O)C9=O)CC7)CC6)c5)ncnc43)C2)n1    0/0/0%
3. O=C1CCC(c2ccc(OCC(=O)N3CCC(CCN4CCN(c5ccc(Nc6ncnc7c6ncn7[C@H]6C[C@@H](NC(=O)c7c(Cl)cccc7Cl)C6)cc5)CC4)CC3)cc2)C(=O)N1 (stereo partly drawn)    10/10/10%

###

- System: CDK2 (Homo sapiens)
- Construct: endogenous in cells; host or cells: MDA-MB-231
- Assay: CDK protein degradation activity (Western blotting), CDK2
- Assay type: cell-based
- Condition summary: MDA-MB-231 cells, 1 μM, 16 hours, Western blot
Readout kind: Enzyme degradation CDK2 (% remaining) @ 1 μM (%)

1. O=C1CC[C@H](N2C(=O)c3cc(F)c(N4CCC(CN5CCC(CCNc6ncnc7c6ncn7[C@H]6C[C@@H](NC(=O)c7c(Cl)cccc7Cl)C6)CC5)CC4)cc3C2=O)C(=O)N1    30
2. CC(=O)NC1CC(n2cnc3c(NCC4CCN(CC5CCN(C(=O)COc6cccc7c6C(=O)N([C@H]6CCC(=O)NC6=O)C7=O)CC5)CC4)ncnc32)C1 (some centres unmarked)    80
3. CC(=O)N[C@H]1C[C@@H](n2cnc3c(NCc4ccc(N5CCN(CC6CCN(C(=O)CNc7ccc8c(c7)C(=O)N([C@H]7CCC(=O)NC7=O)C8=O)CC6)CC5)cc4)ncnc32)C1    80

###

- System: CDK9 (Homo sapiens)
- Construct: endogenous in cells; host or cells: MDA-MB-231
- Assay: CDK protein degradation activity (Western blotting), CDK9
- Type: cell-based
- Condition summary: MDA-MB-231 cells, 1 μM, 16 hours, Western blot
- Protocol: In order to evaluate the CDK protein degradation activity of the compounds according to the present invention, the following experiment was conducted. MDA-MB-231 cells were seeded at 5×10^5 cells per well in a 6-well plate. The next day, the compounds were treated in each well to achieve final concentrations of 100 nM, 1 μM, and 10 μM. […] Cell lysates were quantified and separated by size using sodium dodecyl sulfate-polyacrylamide gel electrophoresis (SDS-PAGE). […]
Readout kind: Enzyme degradation CDK9 (% remaining) @ 1 μM (%)

1) O=C1CC[C@H](N2C(=O)c3ccc(NCC(=O)N4CCC(OCCN5CCN(c6ccc(Nc7ncnc8c7ncn8[C@H]7C[C@@H](NC(=O)Cc8ccccc8)C7)cc6)CC5)CC4)cc3C2=O)C(=O)N1    20
2) COc1ccc(C(=O)N2CCC3(CC2)CC(N2CCC(c4ccc(Nc5ncnc6c5ncn6[C@H]5C[C@@H](NC(=O)Cc6ccccc6)C5)cc4)CC2)C3)cc1N1CCC(=O)NC1=O    30

###

- System: CDK2 (Homo sapiens)
- Construct: endogenous in cells; host or cells: MDA-MB-231
- Assay: CDK protein degradation activity (Western blotting), CDK2
- Type: cell-based
- Condition summary: MDA-MB-231 cells, 0.1 μM, 16 hours, Western blot
Readout kind: Enzyme degradation CDK2 (% remaining) @ 0.1 μM (%)

1. Cc1cccc(C(=O)NC2CC(n3cnc4c(NCc5cccc(N6CCN(CC7CCN(C(=O)COc8ccc9c(c8)C(=O)N([C@H]8CCC(=O)NC8=O)C9=O)CC7)CC6)c5)ncnc43)C2)n1 (stereo partly drawn)    90
2. Cc1cccc(C(=O)NC2CC(n3cnc4c(NCCC5CCN(CC6CCN(C(=O)CNc7cccc8c7C(=O)N([C@H]7CCC(=O)NC7=O)C8=O)CC6)CC5)ncnc43)C2)n1 (stereo partly drawn)    10
3. O=C1CCC(N2C(=O)c3cc(F)c(N4CCC(C(=O)N5CCC(CN6CCC(CCNc7ncnc8c7ncn8[C@H]7C[C@@H](NC(=O)Cc8ccccc8)C7)CC6)CC5)CC4)cc3C2=O)C(=O)N1 (stereo partly drawn)    70

###

- System: CDK9 (Homo sapiens, UniProt P50750)
- Construct: endogenous in cells; host or cells: MDA-MB-231
- Assay: CDK protein degradation activity (Western blotting), CDK9
- Format: cell-based
- Condition summary: MDA-MB-231 cells, 10 μM, 16 hours, Western blot
Readout kind: Enzyme degradation CDK9 (% remaining) @ 10 μM

1) Cc1cccc(C(=O)NC2CC(n3cnc4c(NCc5ccc(OCCCN6CCN(C(=O)CNc7ccc8c(c7)C(=O)N([C@H]7CCC(=O)NC7=O)C8=O)CC6)cc5)ncnc43)C2)n1 (stereo partly drawn) [Compound 114]    0/0/0%
2) Cc1cccc(C(=O)NC2CC(n3cnc4c(NCc5cccc(N6CCN(CC7CCN(C(=O)CNc8cccc9c8C(=O)N([C@H]8CCC(=O)NC8=O)C9=O)CC7)CC6)c5)ncnc43)C2)n1 (stereo partly drawn) [Compound 134]    0/0/0%
3) N#Cc1cccc(C(=O)N[C@H]2C[C@@H](n3cnc4c(Nc5ccc(N6CCN(CC7CCN(c8cc9c(cc8F)C(=O)N(C8CCC(=O)NC8=O)C9=O)CC7)CC6)cc5)ncnc43)C2)n1 (stereo partly drawn) [Compound 414]    10/10/10%

###

Reported values of Enzyme degradation CDK2 (% remaining) @ 1 μM for individual entries
- System: CDK2 (Homo sapiens)
- Construct: endogenous in cells; host or cells: MDA-MB-231
- Assay: CDK protein degradation activity (Western blotting), CDK2
- Type: cell-based
- Condition summary: MDA-MB-231 cells, 1 μM, 16 hours, Western blot
Readout kind: Enzyme degradation CDK2 (% remaining) @ 1 μM (%)

1) O=C1CCC(N2C(=O)C=C(N3CCC(C(=O)NC[C@H]4CC[C@H](CN5CCN(c6ccc(Nc7ncnc8c7ncn8[C@H]7C[C@@H](NC(=O)Cc8ccccc8)C7)cc6)CC5)CC4)CC3)C2=O)C(=O)N1 (stereo partly drawn) [Compound 201]    70
2) O=C1CCC(N2C(=O)c3ccc(N4CC(C(=O)N5CCN(C6CN(c7ccc(Nc8ncnc9c8ncn9[C@H]8C[C@@H](NC(=O)Cc9ccccc9)C8)cc7)C6)CC5)C4)cc3C2=O)C(=O)N1 (stereo partly drawn) [Compound 374]    30
